target: firefly luciferase (Photinus pyralis); assay: Detergent titration with Tergitol NP-9, digitonin or no lysing agent, firefly luciferase (Example 4); assay type: biochemical; conditions: 0.0050% detergent; Terg; read-out: Relative Firefly Luc Intensity
Listing of entries alongside the reported remaining activity at 0.005 %.
Answer format: numeric, % implied, no suffix.

Consider the reported remaining activity at 0.005 % for these compounds:
> print(dat)
                                   compound                       property  unit  endpoint.result
1  CCCCCCCCCCCCCCCC[N+](C)(C)C.[Cl-] [Cetyltrimethylammonium chloride]  remaining activity at 0.005 %     %               94
2  CCCCCCCCCCCCCC[N+](C)(C)Cc1ccccc1.[Br-] [Benzyldimethyltetradecylammonium bromide]  remaining activity at 0.005 %     %               93
3         Cc1cc(C)c(C[N+](C)(C)C)cc1C.[Br-]  remaining activity at 0.005 %     %               83

Return remaining activity at 0.005 % measured with firefly luciferase (Photinus pyralis) given this compound: CCCCCCCCCCCC[N+](C)(C)C.[Br-] [Dodecyltrimethylammonium bromide]
93

Enter reported remaining activity at 0.005 % observed with firefly luciferase (Photinus pyralis) for CCCCC[N+](CCCCC)(CCCCC)CCCCC.[Br-] [Tetrapentylammonium bromide]
96

Request - read-out remaining activity at 0.005 % | tested on firefly luciferase (Photinus pyralis) | compound CCCCCCCCCCCC[N+](C)(C)Cc1ccccc1.[Br-] [Benzyldimethyldodecylammonium bromide]
101

---

target: Renilla luciferase (Renilla reniformis, UniProt P27652); assay: Detergent titration with Tergitol NP-9, digitonin or no lysing agent, Renilla luciferase (Example 4); assay type: biochemical; conditions: 0.0050% detergent; Water; read-out: Relative Renilla Luc Intensity
Sequence (P27652 whole entry): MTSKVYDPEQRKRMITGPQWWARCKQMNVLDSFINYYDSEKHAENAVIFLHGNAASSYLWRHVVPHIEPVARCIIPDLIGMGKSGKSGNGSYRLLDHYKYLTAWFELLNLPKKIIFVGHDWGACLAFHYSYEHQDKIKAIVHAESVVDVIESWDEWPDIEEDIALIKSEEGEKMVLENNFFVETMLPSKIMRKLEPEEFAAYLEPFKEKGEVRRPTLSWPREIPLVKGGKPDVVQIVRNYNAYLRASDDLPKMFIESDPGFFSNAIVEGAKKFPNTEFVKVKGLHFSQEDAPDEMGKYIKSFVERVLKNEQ
property: remaining activity at 0.005 % (%)
Write the answer as a number in %, unit excluded.

> print(dat)
                                   molecule  endpoint.result
1  CCCCCCCCCCCCCCCC[N+](C)(C)C.[Cl-] [Cetyltrimethylammonium chloride]             0.02
2  CCCCC[N+](CCCCC)(CCCCC)CCCCC.[Br-] [Tetrapentylammonium bromide]               83
3  CCCCCCCCCCCCCC[N+](C)(C)Cc1ccccc1.[Br-] [Benzyldimethyltetradecylammonium bromide]             0.01
4  CCCCCCCCCCCC[N+](C)(C)Cc1ccccc1.[Br-] [Benzyldimethyldodecylammonium bromide]                4
5  CCCCCCCCCCCC[N+](C)(C)C.[Br-] [Dodecyltrimethylammonium bromide]               51

Form entry - test system: Renilla luciferase (Renilla reniformis, UniProt P27652); read-out: remaining activity at 0.005 %; molecule: `Cc1cc(C)c(C[N+](C)(C)C)cc1C.[Br-]`
3

---

biological target: firefly luciferase (Photinus pyralis, UniProt P08659); experiment: Quaternary ammonium/phosphonium detergent screen, firefly luciferase (Example 5); assay type: biochemical; conditions: final conc. 0.03% detergent; Tergitol NP-9 present
Sequence (P08659 whole entry): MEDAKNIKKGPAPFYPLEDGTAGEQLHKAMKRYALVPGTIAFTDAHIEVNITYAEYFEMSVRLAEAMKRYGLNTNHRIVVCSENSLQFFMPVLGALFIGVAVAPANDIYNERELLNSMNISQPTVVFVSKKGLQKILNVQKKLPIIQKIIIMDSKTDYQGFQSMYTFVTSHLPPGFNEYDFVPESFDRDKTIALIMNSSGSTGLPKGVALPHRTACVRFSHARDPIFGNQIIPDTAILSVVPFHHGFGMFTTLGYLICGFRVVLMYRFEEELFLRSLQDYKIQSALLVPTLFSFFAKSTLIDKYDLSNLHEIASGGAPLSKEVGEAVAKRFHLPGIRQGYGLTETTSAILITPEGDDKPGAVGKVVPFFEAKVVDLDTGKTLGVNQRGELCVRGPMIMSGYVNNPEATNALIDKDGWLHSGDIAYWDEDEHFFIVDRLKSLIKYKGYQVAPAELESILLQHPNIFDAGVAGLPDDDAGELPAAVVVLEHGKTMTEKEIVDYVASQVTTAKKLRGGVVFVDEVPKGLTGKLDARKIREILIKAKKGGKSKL
Quick rule for you: Retained Firefly Luciferase Luminescence (%) under 90% gets MET, anything else gets NOT MET.

Check out these entries, answers already filled in.
> print(dat)
                                   compound                               target.desc  assigned.label
1  C[N+](C)(Cc1ccccc1)c1ccccc1.[Br-] [Benzyldimethylphenylammonium bromide]  firefly luciferase (Photinus pyralis, UniProt P08659)         NOT MET
2             C[N+]1(C)CCCc2cccc(O)c21.[I-]  firefly luciferase (Photinus pyralis, UniProt P08659)             MET
3  CC[N+](CC)(CCC(=O)Nc1c(C)cccc1C)Cc1ccccc1.O=C([O-])c1ccccc1  firefly luciferase (Photinus pyralis, UniProt P08659)         NOT MET
4           CC1(C)C=Cc2ccccc2[N+]1(C)C.[I-]  firefly luciferase (Photinus pyralis, UniProt P08659)             MET

In the following, a different compound is considered.
Identify whether the compound C[N+](C)(C)Cc1ccccc1.[I-] [Bezyltrimethylammonium iodide] records Retained Firefly Luciferase Luminescence (%) below 90%.
MET

---

Selectivity Value overview
target: Renilla luciferase (Renilla reniformis); experiment: Non-detergent compound screen, Renilla luciferase (Example 6); assay type: biochemical; settings: inhibitor 100 μM
The reply should be a number, written without any unit.

Recorded results for 5 compounds are shown here.
> print(dat)
                                smiles.text  endpoint.result
1    COc1ccc(CNC(=O)/C=C/c2ccc3ncccc3c2)cc1              1.3
2  COc1cc(CNC(=O)/C=C/c2ccc3[nH]cc(CCN(C)C)c3c2)cc(OC)c1OC              1.1
3  COc1ccc(CNC(=O)/C=C/c2ccc3[nH]cc(CCN(C)C)c3c2)cc1             10.2
4  COc1ccc(CNC(=O)/C=C/c2ccc3[nH]cc(CCCN(C)C)c3c2)cc1              6.7
5  COc1cc(OC)c(CNC(=O)/C=C/c2ccc3[nH]cc(CCN(C)C)c3c2)c(OC)c1              1.5

Attention now shifts to the item below.
Lab note: need Selectivity Value for `CCCCCC[N+](C)(C)CCc1c[nH]c2ccc(/C=C/C(=O)NCc3ccc(OC)cc3)cc12.[I-]` on Renilla luciferase (Renilla reniformis), anyone have it?
100

---

molecular target: Renilla luciferase (Renilla reniformis, UniProt P27652); assay: Non-detergent compound screen, Renilla luciferase (Example 6); type: biochemical; conditions: inhibitor 10 μM; 0.5% Tergitol NP-9, 0.03% BDDABr; read-out: Retained Renilla Luciferase Value (%)
property: remaining activity at 10 µM (%)
State just the number; it will be interpreted in %.

> print(dat)
                                smiles.text  endpoint.result
1  COc1ccc(CNC(=O)/C=C/c2ccc3[nH]cc(CCN(C)C)c3c2)cc1               40
2  COc1cc(OC)c(CNC(=O)/C=C/c2ccc3[nH]cc(CCN(C)C)c3c2)c(OC)c1              102
3  COc1cc(CNC(=O)/C=C/c2ccc3[nH]cc(CCN(C)C)c3c2)cc(OC)c1OC              101
4    COc1ccc(CNC(=O)/C=C/c2ccc3ncccc3c2)cc1               96
5  COc1ccc(CNC(=O)/C=C/c2ccc3c(ccc[n+]3C)c2)cc1.[I-]               96
6  COc1ccc(CNC(=O)/C(C#N)=C/c2ccc3[nH]cc(CCN(C)C)c3c2)cc1               85

--- query ---
Item: `CCCC[N+](C)(C)CCc1c[nH]c2ccc(/C=C/C(=O)NCc3ccc(OC)cc3)cc12.[I-]` Test system: Renilla luciferase (Renilla reniformis, UniProt P27652) Read-out: remaining activity at 10 µM Value: ?
5

---

target: firefly luciferase (Photinus pyralis); assay: Non-detergent compound screen, firefly luciferase (Example 6); format: biochemical; settings: inhibitor 1000 μM; 0.5% Tergitol NP-9, 0.03% BDDABr; read-out: Retained Firefly Luciferase Value (%)
property: remaining activity at 1000 µM (%)
Use % as the unit, but write only the number.

Here's what some known entries look like.
> print(dat)
                                   compound                            target.desc                       property  endpoint.result
1  COc1ccc(CNC(=O)COc2ccc3[nH]cc(CCN(C)C)c3c2)cc1 [Compound 3031]  firefly luciferase (Photinus pyralis)  remaining activity at 1000 µM               89
2  COc1ccc(CNC(=O)/C=C/c2ccc3c(c2)c(CCN(C)C)cn3Cc2ccccc2)cc1 [Compound 3055]  firefly luciferase (Photinus pyralis)  remaining activity at 1000 µM               99

Requested field: remaining activity at 1000 µM. Item: CN(C)CCc1c[nH]c2ccc(/C=C/C(=O)N3CCOCC3)cc12 [Compound 3064]
103

Would you kindly share the measured remaining activity at 1000 µM for COc1ccc(CNC(=O)/C=C/c2ccc3[nH]ccc3c2)cc1 [Compound 3056] ?
89

Fill blank: measured remaining activity at 1000 µM of the compound COc1ccc(CNC(=O)/C=C/c2ccc3[nH]cc(CCN(C)C)c3c2)c(OC)c1 [Compound 3051] is ____.
102

So what's the measured remaining activity at 1000 µM for this one? COc1ccc(CNC(=O)/C=C/c2ccc3ncccc3c2)cc1 [Compound 3046]
83

# credit: patent US20080248511A1
